Give logP for every item shown.
# Test summary: logP by HPLC on reversed-phase columns (C 18), EEC Directive 79/831 Annex V.A8
# Format: physicochemical
# Conditions: method marker [b]; footnote not given; compound 68 value matches logP (pH 2.3)

Lab note: measured logP of CSCCNc1nc(Nc2ccccc2)ncc1C#N was 2.6[b]

Lab note: measured logP of COCC(C)Nc1nc(Nc2ccc(Cl)c(S(C)(=O)=O)c2)ncc1Br (stereo not shown) was 2.23[b]

Lab note: measured logP of COCC(C)Nc1nc(Nc2ccc(F)cc2)ncc1Cl (stereo not shown) was 1.8[b]

Lab note: measured logP of COCC(C)Nc1nc(Nc2ccc(OC)cc2)ncc1Br (stereo not shown) was 1.63[b]

Lab note: measured logP of COCC(C)Nc1nc(Nc2ccc(Cl)c(S(C)(=O)=O)c2)ncc1Cl (stereo not shown) was 2.09[b]

Lab note: measured logP of COCC(C)Nc1nc(Nc2ccc(F)cc2F)ncc1Cl (stereo not shown) was 2.02[b]

Lab note: measured logP of COCC(C)Nc1nc(Nc2ccccc2)ncc1C(F)(F)F (stereo not shown) was 2.74[b]

Lab note: measured logP of COCCNc1nc(Nc2cccc(Cl)c2)ncc1Cl was 2.13[b]

Lab note: measured logP of COCC(C)Nc1nc(Nc2ccc(C(=O)OC)c(Cl)c2)ncc1Cl (stereo not shown) was 2.95[b]

Lab note: measured logP of COCC(C)Nc1nc(Nc2cccc(NC(C)=O)c2)ncc1Br (stereo not shown) was 1.11[b]
